assay: Standard protocol for determination of kcat and KM (continuous spectrophotometric assay, Acetyl CoA hydrolysis at 235 nm); assay type: biochemical; details: purified protein; about 23° C.; 20 mM HEPES pH 6.8, 10% ethylene glycol, 0.2 mM acetyl CoA
Outcome Measure: Kcat
Just so you know, I need the unit written after the number.

Before answering, review these 2 worked examples.
>  <Molecule>
SEQ ID NO: 421: GAT polypeptide (protein, 9_13F10, GAT polypeptide) MIEVKPINAEDTYEIRHRILRPNQPLEACKYETDLLRGAFHLGGYYRGKLVSIASFHQAEHSELEGQKQYQLRGMATLEEYREQKAGSTLIRHAEELLRKKGADLLWCNARTSASGYYKKLGFSEQGEVYDIPPTGPHILMYKKLT

>  <Kcat>
0.578 s⁻¹

$$$$
>  <Molecule>
SEQ ID NO: 282: GAT polypeptide (protein, 10_8C6, GAT polypeptide) MIEVKPINAEDTYEIRHRILRPNQPLEACKYETDLLGGAFHLGGYYRGKLISIASFHQAEHPELEGQKQYQLRGMATLEGYREQKAGSTLIRHAEELLRKKGADLLWCNARTSASGYYKKLGFSEQGGVYDIPPVGPHILMYKKLT

>  <Kcat>
0.362 s⁻¹

$$$$

Any idea what Kcat was measured for SEQ ID NO: 510: GAT polypeptide (protein, GAT1_29G1, GAT polypeptide) MIEVKPINAEDTYEIRHRILRPNQPLEACMYETDLLGGTFHLGGYYRGKLISIASFHQAEHSELEGQKQYQLRGMATLEGYREQKAGSTLIRHAEELLRKKGADLLWCNARTSVSGYYKKLGFSEQGGVCDIPPIGPHILMYKKLA ? 0.103 s⁻¹
